Data credit: ChEMBL document CHEMBL2401653

Answer each item with its documented pIC50.
pIC50 field: float, defined as -log10 of concentration (mol/L).

Qu. P2Y purinoceptor 12 (Homo sapiens) / pIC50 / CCOC(=O)c1cnc(N2CCN(C(=S)NC(=O)c3ccccc3)CC2)c(Cl)c1 : value?
Ans. 5.62

Qu. P2Y purinoceptor 12 (Homo sapiens) / pIC50 / CCOC(=O)c1cnc(N2CCN(C(=O)NS(=O)(=O)c3ccc(C)cc3)CC2)c(Cl)c1 : value?
Ans. 6.52

Qu. P2Y purinoceptor 12 (Homo sapiens) / pIC50 / CCOC(=O)c1cc(C#N)c(N2CCN(C(=O)NS(=O)(=O)c3ccccc3C)CC2)nc1C(F)(F)F : value?
Ans. 6.37

Qu. P2Y purinoceptor 12 (Homo sapiens) / pIC50 / CCOC(=O)c1cc(C#N)c(N2CCN(C(=O)NS(=O)(=O)c3ccc(Cl)s3)C(CCC(=O)O)C2)nc1C(F)(F)F (racemic) : value?
Ans. 7.02

Qu. P2Y purinoceptor 12 (Homo sapiens) / pIC50 / CCOC(=O)c1cc(C#N)c(N2CCN(C(=O)NS(=O)(=O)c3ccc(Cl)s3)CC2C)nc1C (racemic) : value?
Ans. 7.19

Qu. P2Y purinoceptor 12 (Homo sapiens) / pIC50 / CCOC(=O)c1cnc(N2CCN(C(=O)Nc3ccccc3)CC2CCC(=O)O)c(Cl)c1 (racemic) : value?
Ans. 6.17

Qu. P2Y purinoceptor 12 (Homo sapiens) / pIC50 / CCOC(=O)c1cnc(N2CCN(C(=O)NC(=O)c3ccccc3)CC2)c(Cl)c1 : value?
Ans. 5.00

Qu. P2Y purinoceptor 12 (Homo sapiens) / pIC50 / CCOC(=O)c1cnc(N2CCN(C(=O)NS(=O)(=O)c3ccc(Cl)s3)CC2)c(Cl)c1 : value?
Ans. 7.05

Qu. P2Y purinoceptor 12 (Homo sapiens) / pIC50 / CCCS(=O)(=O)c1cnc(N2CCN(C(=O)NS(=O)(=O)c3ccc(Cl)s3)CC2)c(Cl)c1 : value?
Ans. 5.03

Qu. P2Y purinoceptor 12 (Homo sapiens) / pIC50 / CCOC(=O)c1cc(C#N)c(N2CCN(C(=O)NS(=O)(=O)c3ccc(F)cc3)CC2)nc1C(F)(F)F : value?
Ans. 6.64

Qu. P2Y purinoceptor 12 (Homo sapiens) / pIC50 / CCOC(=O)c1cc(C#N)c(N2CCN(C(=O)NS(=O)(=O)c3ccccc3Cl)CC2)nc1C(F)(F)F : value?
Ans. 6.16

Qu. P2Y purinoceptor 12 (Homo sapiens) / pIC50 / C=C(NC(=O)N1CCN(c2ncc(C(=O)OCC)cc2Cl)CC1)c1ccccc1 : value?
Ans. 5.62

Qu. P2Y purinoceptor 12 (Homo sapiens) / pIC50 / CCOC(=O)c1cc(C#N)c(N2C[C@@H]3C[C@H]2CN3C(=O)NS(=O)(=O)c2ccc(Cl)s2)nc1C : value?
Ans. 5.54

Qu. P2Y purinoceptor 12 (Homo sapiens) / pIC50 / CC(C)CCOC(=O)c1cnc(N2CCN(C(=O)NS(=O)(=O)c3ccc(Cl)s3)CC2)c(Cl)c1 : value?
Ans. 6.85

Qu. P2Y purinoceptor 12 (Homo sapiens) / pIC50 / CCOC(=O)c1cnc(N2CCN(C(=O)NS(=O)(=O)c3ccc(F)cc3)CC2)c(Cl)c1 : value?
Ans. 6.43

Qu. P2Y purinoceptor 12 (Homo sapiens) / pIC50 / CCOC(=O)c1cnc(N2CCN(C(=S)Nc3ccccc3)CC2)c(Cl)c1 : value?
Ans. 4.92

Qu. P2Y purinoceptor 12 (Homo sapiens) / pIC50 / CCOC(=O)c1cc(C#N)c(N2CCN(C(=O)NS(=O)(=O)c3ccc(Cl)s3)CC2)nc1C : value?
Ans. 7.38

Qu. P2Y purinoceptor 12 (Homo sapiens) / pIC50 / CCCCOC(=O)c1cnc(N2CCN(C(=O)NS(=O)(=O)c3ccc(Cl)s3)CC2)c(Cl)c1 : value?
Ans. 7.02

Qu. P2Y purinoceptor 12 (Homo sapiens) / pIC50 / CCOC(=O)c1cc(C#N)c(N2CCN(C(=O)NS(=O)(=O)c3ccccc3)CC2)nc1C : value?
Ans. 6.85

Qu. P2Y purinoceptor 12 (Homo sapiens) / pIC50 / CCOC(=O)c1cnc(N2CCC(NC(=O)NS(=O)(=O)c3ccccc3)CC2)c(Cl)c1 : value?
Ans. 5.32

Qu. P2Y purinoceptor 12 (Homo sapiens) / pIC50 / CCOC(=O)c1cc(C#N)c(N2CC(NC(=O)NS(=O)(=O)c3ccc(Cl)cc3)C2)nc1C : value?
Ans. 7.07

Qu. P2Y purinoceptor 12 (Homo sapiens) / pIC50 / CCOC(=O)c1cc(C#N)c(N2CCN(C(=O)NS(=O)(=O)c3ccc(Cl)s3)CC2)nc1C(F)(F)F : value?
Ans. 7.10

Qu. P2Y purinoceptor 12 (Homo sapiens) / pIC50 / CCOC(=O)c1cnc(N2CCN(C(=O)NS(=O)(=O)c3ccccc3C)CC2)c(Cl)c1 : value?
Ans. 6.82

Qu. P2Y purinoceptor 12 (Homo sapiens) / pIC50 / CCOC(=O)c1cc(C#N)c(N2CC(NC(=O)NS(=O)(=O)c3ccccc3)C2)nc1C : value?
Ans. 7.21

Qu. P2Y purinoceptor 12 (Homo sapiens) / pIC50 / CCOC(=O)c1cnc(N2CC(NC(=O)NS(=O)(=O)c3ccccc3)C2)c(Cl)c1 : value?
Ans. 6.37

Qu. P2Y purinoceptor 12 (Homo sapiens) / pIC50 / CCOC(=O)c1cc(C#N)c(N2CCN(C(=O)NS(=O)(=O)Cc3ccccc3)CC2)nc1C : value?
Ans. 7.48

Qu. P2Y purinoceptor 12 (Homo sapiens) / pIC50 / CCOC(=O)c1cnc(N2CCN(C(=O)NS(=O)(=O)c3ccccc3)CC2)c(Cl)c1 : value?
Ans. 6.74

Qu. P2Y purinoceptor 12 (Homo sapiens) / pIC50 / CCOC(=O)c1cc(C#N)c(N2CCC(NC(=O)NS(=O)(=O)c3ccc(Cl)cc3)CC2)nc1C : value?
Ans. 6.72

Qu. P2Y purinoceptor 12 (Homo sapiens) / pIC50 / CCOC(=O)c1cnc(N2CCN(C(=O)NS(=O)(=O)c3ccc(Cl)cc3)CC2)c(Cl)c1 : value?
Ans. 6.28

Qu. P2Y purinoceptor 12 (Homo sapiens) / pIC50 / CCOC(=O)c1cc(C#N)c(N2CCC(NC(=O)NS(=O)(=O)Cc3ccccc3)CC2)nc1C : value?
Ans. 7.06

Qu. P2Y purinoceptor 12 (Homo sapiens) / pIC50 / CCOC(=O)c1cc(C#N)c(N2CC3CN(C(=O)NS(=O)(=O)c4ccccc4)CC3C2)nc1C (stereo not drawn) : value?
Ans. 6.62

Qu. P2Y purinoceptor 12 (Homo sapiens) / pIC50 / CCOC(=O)c1cc(C#N)c(N2CC(NC(=O)NS(=O)(=O)Cc3ccccc3)C2)nc1C : value?
Ans. 7.10
